Source listed as patent US20230285583A1.

The following binders are shown together with reported In Vitro Activity Compared to Native Peptide (%) vs. GIP (relative titer from cAMP EC50) values.
# system.name: T1, human GIP receptor (human, UniProt P48546 22-466)
# T1 sequence (looked up): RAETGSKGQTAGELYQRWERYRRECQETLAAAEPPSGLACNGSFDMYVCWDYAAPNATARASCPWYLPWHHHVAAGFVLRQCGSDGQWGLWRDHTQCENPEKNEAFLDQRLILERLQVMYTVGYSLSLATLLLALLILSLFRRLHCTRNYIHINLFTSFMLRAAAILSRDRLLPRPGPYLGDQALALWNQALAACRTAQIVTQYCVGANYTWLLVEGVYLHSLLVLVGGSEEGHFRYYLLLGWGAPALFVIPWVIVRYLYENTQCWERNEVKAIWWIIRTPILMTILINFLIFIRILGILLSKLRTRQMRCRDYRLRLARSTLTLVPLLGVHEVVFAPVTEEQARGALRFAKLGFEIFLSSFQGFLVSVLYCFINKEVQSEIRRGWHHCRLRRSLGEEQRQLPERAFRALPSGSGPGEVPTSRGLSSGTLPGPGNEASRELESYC
# experiment.notes: cell-based or functional assay
Bridge positions count the residues as written; N and C are the ends. Square brackets hold non-standard residues; d marks the D form. Ends that are not written are not given here. * marks the point of attachment. Acetyl(2-(4-imidazolyl)) = O=C(Cc1c[nH]cn1)*; Aib = CC(C)(N)C(=O)O
outcome.measure: In Vitro Activity Compared to Native Peptide (%) vs. GIP (relative titer from cAMP EC50)

>  <binder>
[Acetyl(2-(4-imidazolyl))][Aib]QGTFTSDYSKCLDEKRAKEFVQWLLDHHPSSGQPPPS (bridge 16-20; not fully specified (bridges)) [trigonal agonist of SEQ ID NO: 29]

>  <observed.value>
1%

$$$$
>  <binder>
Y[Aib]QGTFTSDYSKALDEKAAKDFVNWLLDQHPSSGQPPPSC (bridge 16-20; not fully specified (bridges)) [trigonal agonist of SEQ ID NO: 46]

>  <observed.value>
58%

$$$$
>  <binder>
Y[Aib]QGTFTSDYSKALDEKAAKEFVNWLLDQHPSSGQPPPSC (bridge 16-20; not fully specified (bridges)) [trigonal agonist of SEQ ID NO: 45]

>  <observed.value>
40.1%

$$$$
>  <binder>
Y[Aib]QGTFTSDYSKALDEKAAKDFVNWLLDHHPSSGQPPPSC (bridge 16-20; not fully specified (bridges)) [trigonal agonist of SEQ ID NO: 43]

>  <observed.value>
57.7%

$$$$
